molecular target: human ERα (Homo sapiens); construct: expressed in transfected cells; host or cells: HAECT-1 cells (immortalized human aortic endothelial cells) infected with Ad5-wt-hERα adenovirus; assay: IL-6 luciferase (IL6-luc) assay in ERα infected HAECT-1 cells; format: cell-based; conditions: efficacy relative to E2, value in parentheses after the IC50
Sequence (P03372 whole entry): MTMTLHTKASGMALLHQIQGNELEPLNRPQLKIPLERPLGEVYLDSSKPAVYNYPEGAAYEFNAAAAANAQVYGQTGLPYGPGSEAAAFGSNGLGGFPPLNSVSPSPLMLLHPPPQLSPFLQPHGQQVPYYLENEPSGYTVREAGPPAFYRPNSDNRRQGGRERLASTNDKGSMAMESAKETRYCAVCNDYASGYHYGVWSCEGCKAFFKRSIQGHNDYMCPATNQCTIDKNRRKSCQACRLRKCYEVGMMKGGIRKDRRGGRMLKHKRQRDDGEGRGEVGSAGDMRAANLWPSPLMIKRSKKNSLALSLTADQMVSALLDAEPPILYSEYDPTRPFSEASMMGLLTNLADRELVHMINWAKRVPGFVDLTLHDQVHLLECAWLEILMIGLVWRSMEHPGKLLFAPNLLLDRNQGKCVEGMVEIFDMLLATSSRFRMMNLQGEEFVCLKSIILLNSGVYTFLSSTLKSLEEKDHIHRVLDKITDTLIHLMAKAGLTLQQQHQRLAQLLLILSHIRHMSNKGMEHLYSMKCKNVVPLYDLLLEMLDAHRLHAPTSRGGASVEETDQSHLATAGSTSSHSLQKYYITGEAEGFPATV

compound: C[C@@H]1c2ccccc2-c2ccc(Cl)cc2N1C(=O)c1cccc(O)c1
IL6-luc (% E2), %: 103
--
compound: CCC1c2cc(F)ccc2-c2ccccc2N1C(=O)c1ccc(O)cc1F (racemic)
IL6-luc (% E2), %: 107
--
compound: C[C@H]1c2ccccc2-c2ccc(Cl)cc2N1C(=O)c1ccc(O)cc1O
IL6-luc (% E2), %: 125
--
compound: C[C@@H]1c2cc(F)ccc2-c2ccccc2N1C(=O)c1ccc(Cl)c(O)c1
IL6-luc (% E2), %: 107
--
compound: C[C@@H]1c2ccccc2-c2ccc(F)cc2N1C(=O)c1cccc(O)c1 (single isomer, unassigned)
IL6-luc (% E2), %: 188
--
compound: CC[C@@H]1c2cc(F)ccc2-c2ccccc2N1C(=O)c1cccc(O)c1
IL6-luc (% E2), %: 134
--
compound: C[C@H]1c2cc(F)ccc2-c2ccccc2N1C(=O)c1ccc(O)cc1F
IL6-luc (% E2), %: 90
--
compound: C[C@@H]1c2ccccc2-c2ccc(Cl)cc2N1C(=O)c1ccc(O)cc1O
IL6-luc (% E2), %: 87
--
compound: C[C@@H]1c2cc(F)ccc2-c2ccccc2N1C(=O)c1ccc(O)c(F)c1
IL6-luc (% E2), %: 81
--
compound: C[C@@H]1c2cc(F)ccc2-c2ccccc2N1C(=O)c1ccc(O)cc1F
IL6-luc (% E2), %: 97
--
compound: C[C@H]1c2cc(F)ccc2-c2ccccc2N1C(=O)c1ccc(O)cc1
IL6-luc (% E2), %: 114
--
compound: C[C@@H]1c2cc(F)ccc2-c2ccccc2N1C(=O)c1cccc(O)c1
IL6-luc (% E2), %: 102
--
compound: C[C@H]1c2cc(F)ccc2-c2ccccc2N1C(=O)c1cccc(O)c1
IL6-luc (% E2), %: 53
--
compound: C[C@@H]1c2cc(F)ccc2-c2ccc(F)cc2N1C(=O)c1ccc(O)cc1 (single isomer, unassigned)
IL6-luc (% E2), %: 147
--
compound: C[C@@H]1c2ccccc2-c2ccc(F)cc2N1C(=O)c1ccc(O)cc1O (single isomer, unassigned)
IL6-luc (% E2), %: 107
--
compound: C[C@@H]1c2cc(F)ccc2-c2ccccc2N1C(=O)c1cc(O)ccc1F
IL6-luc (% E2), %: 70
--
compound: CC1c2cc(F)ccc2-c2ccc(F)cc2N1C(=O)c1ccc(O)cc1 (racemic)
IL6-luc (% E2), %: 95
--
compound: CC[C@H]1c2cc(F)ccc2-c2ccccc2N1C(=O)c1ccc(O)cc1
IL6-luc (% E2), %: 88
--
compound: CC[C@@H]1c2cc(F)ccc2-c2ccccc2N1C(=O)c1ccc(O)cc1O
IL6-luc (% E2), %: 106
--
compound: C[C@H]1c2cc(F)ccc2-c2ccccc2N1C(=O)c1ccc(O)c(F)c1
IL6-luc (% E2), %: 68
--
compound: C[C@@H]1c2ccccc2-c2ccc(F)cc2N1C(=O)c1ccc(O)cc1 (single isomer, unassigned)
IL6-luc (% E2), %: 114
--
compound: C[C@H]1c2ccccc2-c2ccc(F)cc2N1C(=O)c1ccc(O)cc1O (single isomer, unassigned)
IL6-luc (% E2), %: 88
--
compound: C[C@H]1c2cc(F)ccc2-c2ccccc2N1C(=O)c1cc(O)ccc1Br
IL6-luc (% E2), %: 91
--
compound: CC[C@@H]1c2cc(F)ccc2-c2ccccc2N1C(=O)c1ccc(O)cc1
IL6-luc (% E2), %: 95
--
compound: C[C@@H]1c2cc(F)ccc2-c2ccccc2N1C(=O)c1ccc(O)cc1
IL6-luc (% E2), %: 100
--
compound: C[C@H]1c2ccccc2-c2ccc(Cl)cc2N1C(=O)c1ccc(O)cc1
IL6-luc (% E2), %: 75
--
compound: C[C@H]1c2cc(F)ccc2-c2ccc(F)cc2N1C(=O)c1ccc(O)cc1 (single isomer, unassigned)
IL6-luc (% E2), %: 132

// provenance: patent US7585871B2
